Values were extracted from patent US11697650B2.

For BCL-2 (Homo sapiens (Human)), measured IC50 is reported for the entries below.
RECORDED METRIC: IC50

| SMILES DATA | MEASURED VALUE |
| --- | --- |
| O=C(c1cc(-c2cc3c(cc2C(=O)N2Cc4ccccc4C[C@H]2CN2CCOCC2)OCO3)n2c1CCCC2)N(Cc1c(Cl)ccc(F)c1F)c1ccc(O)cc1 | 0.01 to 0.05 µM |
| CC(C)(C)OC(=O)c1cccc(CN(C(=O)c2cc(-c3cc4c(cc3C(=O)N3Cc5ccccc5C[C@H]3CN3CCOCC3)OCO4)n3c2CCCC3)c2ccc(O)cc2)c1 | 0.01 to 0.05 µM |
| Cc1cccc(Cl)c1CN(C(=O)c1cc(-c2cc3c(cc2C(=O)N2Cc4ccccc4C[C@H]2CN2CCOCC2)OCO3)n2c1CCCC2)c1ccc(O)cc1 | > 0.05 µM |
| O=C(c1cc(-c2cc3c(cc2C(=O)N2Cc4ccccc4C[C@H]2CN2CCOCC2)OCO3)n2c1CCCC2)N(Cc1ccccc1C(F)(F)F)c1ccc(O)cc1 | ≤ 0.005 µM |
| CCOc1ccc(-c2nc(CN(C(=O)c3cc(-c4cc5c(cc4C(=O)N4Cc6ccccc6C[C@H]4CN4CCOCC4)OCO5)n4c3CCCC4)c3ccc(O)cc3)c(C)o2)cc1 | > 0.05 µM |
| O=C(O)c1cccc(CN(C(=O)c2cc(-c3cc4c(cc3C(=O)N3Cc5ccccc5C[C@H]3CN3CCOCC3)OCO4)n3c2CCCC3)c2ccc(O)cc2)c1 | 0.01 to 0.05 µM |
| Cc1ccc(CN(C(=O)c2cc(-c3cc4c(cc3C(=O)N3Cc5ccccc5C[C@H]3CN3CCOCC3)OCO4)n3c2CCCC3)c2ccc(O)cc2)cc1 | 0.005 to 0.01 µM |
| O=C(c1cc(-c2cc3c(cc2C(=O)N2Cc4ccccc4C[C@H]2CN2CCOCC2)OCO3)n2c1CCCC2)N(Cc1c(F)cccc1C(F)(F)F)c1ccc(O)cc1 | > 0.05 µM |
| O=C(c1cc(-c2cc3c(cc2C(=O)N2Cc4ccccc4C[C@H]2CN2CCOCC2)OCO3)n2c1CCCC2)N(Cc1cccc(C(F)(F)F)c1)c1ccc(O)cc1 | 0.01 to 0.05 µM |
